# Tested on: Escherichia coli TOP10
# testName: shrunken log2 fold change of peptide-encoding DNA abundance (4.5 h post-induction vs induction); higher = less antimicrobial activity (less host growth inhibition)
# experimentalSetup: time post-induction: 4.5 h; library: site-saturation at positions 5, 18, 19, 20
readoutName: shrunken log2 fold change

>>> reportedvalue("RRIRKRPPRLPRPRPRPKAGPRP")
0.504
>>> reportedvalue("RRIRTRPPRLPRPRPRPSLHPRP")
-0.604
>>> reportedvalue("RRIRQRPPRLPRPRPRPWNPPRP")
-0.0759
>>> reportedvalue("RRIRMRPPRLPRPRPRPVQAPRP")
1.26
>>> reportedvalue("RRIRPRPPRLPRPRPRPEPYPRP")
-0.309
>>> reportedvalue("RRIRHRPPRLPRPRPRPKYQPRP")
-0.145
>>> reportedvalue("RRIRLRPPRLPRPRPRPTLVPRP")
-0.0392
>>> reportedvalue("RRIRRRPPRLPRPRPRPYQCPRP")
0.0675
>>> reportedvalue("RRIRCRPPRLPRPRPRPEMNPRP")
-0.036
>>> reportedvalue("RRIRRRPPRLPRPRPRPVWLPRP")
0.175
>>> reportedvalue("RRIRMRPPRLPRPRPRPFTNPRP")
3.34
>>> reportedvalue("RRIRYRPPRLPRPRPRPIANPRP")
-0.0103
>>> reportedvalue("RRIRQRPPRLPRPRPRPQSIPRP")
-0.0322
>>> reportedvalue("RRIRVRPPRLPRPRPRPEYWPRP")
-0.161
>>> reportedvalue("RRIRLRPPRLPRPRPRPQHFPRP")
-0.343
>>> reportedvalue("RRIRCRPPRLPRPRPRPKDWPRP")
0.378
>>> reportedvalue("RRIRLRPPRLPRPRPRPLKSPRP")
-0.146
>>> reportedvalue("RRIRNRPPRLPRPRPRPNMRPRP")
0.23
>>> reportedvalue("RRIRHRPPRLPRPRPRPVVIPRP")
-0.759
>>> reportedvalue("RRIRPRPPRLPRPRPRPMLRPRP")
0.34
>>> reportedvalue("RRIRMRPPRLPRPRPRPYLAPRP")
-0.0134
>>> reportedvalue("RRIRERPPRLPRPRPRPNMKPRP")
-0.6
>>> reportedvalue("RRIRMRPPRLPRPRPRPWPFPRP")
0.0942
>>> reportedvalue("RRIRIRPPRLPRPRPRPAICPRP")
-0.15
>>> reportedvalue("RRIRCRPPRLPRPRPRPEAIPRP")
0.117
>>> reportedvalue("RRIRTRPPRLPRPRPRPHHMPRP")
-0.321
>>> reportedvalue("RRIRARPPRLPRPRPRPQFPPRP")
0.0321
>>> reportedvalue("RRIRSRPPRLPRPRPRPSFHPRP")
-0.542
>>> reportedvalue("RRIRCRPPRLPRPRPRPGPIPRP")
0.367
>>> reportedvalue("RRIRIRPPRLPRPRPRPGWTPRP")
0.11
>>> reportedvalue("RRIRKRPPRLPRPRPRPHEEPRP")
0.0526
>>> reportedvalue("RRIRNRPPRLPRPRPRPKAQPRP")
0.0241

---

# Test system: Escherichia coli TOP10
# testName: shrunken log2 fold change of peptide-encoding DNA abundance (4.5 h post-induction vs induction); higher = less antimicrobial activity (less host growth inhibition)
# experimentalSetup: time post-induction: 4.5 h; library: site-saturation at positions 5, 18, 19, 20
// map shrunken log2 fold change onto a label; ranges I = under -0.1, II = from -0.1 up to 0.07, III = 0.07 and over

>>> label("RRIRCRPPRLPRPRPRPTFRPRP")
"III"
>>> label("RRIRGRPPRLPRPRPRPCYAPRP")
"III"
>>> label("RRIRQRPPRLPRPRPRPNMYPRP")
"I"
>>> label("RRIRDRPPRLPRPRPRPVYEPRP")
"I"
>>> label("RRIRKRPPRLPRPRPRPMPPPRP")
"III"
>>> label("RRIRYRPPRLPRPRPRPHGVPRP")
"I"
>>> label("RRIRNRPPRLPRPRPRPMLAPRP")
"II"
>>> label("RRIRDRPPRLPRPRPRPEDIPRP")
"II"
>>> label("RRIRDRPPRLPRPRPRPNALPRP")
"II"
>>> label("RRIRGRPPRLPRPRPRPDDFPRP")
"II"
>>> label("RRIRKRPPRLPRPRPRPGAFPRP")
"III"
>>> label("RRIRNRPPRLPRPRPRPKDPPRP")
"II"
>>> label("RRIRHRPPRLPRPRPRPKFVPRP")
"II"
>>> label("RRIRMRPPRLPRPRPRPYDVPRP")
"I"
>>> label("RRIRERPPRLPRPRPRPKHMPRP")
"I"

---

shrunken log2 fold change by entry:
# Tested on: Escherichia coli TOP10
# testName: shrunken log2 fold change of peptide-encoding DNA abundance (4.5 h post-induction vs induction); higher = less antimicrobial activity (less host growth inhibition)
# experimentalSetup: time post-induction: 4.5 h; library: site-saturation at positions 5, 18, 19, 20
readoutName: shrunken log2 fold change

>>> reportedvalue("RRIRMRPPRLPRPRPRPYTVPRP")
0.0221
>>> reportedvalue("RRIRFRPPRLPRPRPRPSSWPRP")
-0.105
>>> reportedvalue("RRIRERPPRLPRPRPRPNYCPRP")
-0.0596
>>> reportedvalue("RRIRPRPPRLPRPRPRPPNTPRP")
0.179
>>> reportedvalue("RRIRPRPPRLPRPRPRPRIDPRP")
-0.0848
>>> reportedvalue("RRIRSRPPRLPRPRPRPIKWPRP")
-0.197
>>> reportedvalue("RRIRTRPPRLPRPRPRPENMPRP")
-0.468
>>> reportedvalue("RRIRSRPPRLPRPRPRPHPTPRP")
0.129
>>> reportedvalue("RRIRKRPPRLPRPRPRPDWGPRP")
2.83
>>> reportedvalue("RRIRHRPPRLPRPRPRPRQGPRP")
0.093
>>> reportedvalue("RRIRNRPPRLPRPRPRPFIRPRP")
-0.111
>>> reportedvalue("RRIRCRPPRLPRPRPRPCIEPRP")
-0.453
>>> reportedvalue("RRIRDRPPRLPRPRPRPDAHPRP")
-0.036
>>> reportedvalue("RRIRMRPPRLPRPRPRPNSNPRP")
-0.177
>>> reportedvalue("RRIRLRPPRLPRPRPRPRRVPRP")
0.0457
>>> reportedvalue("RRIRHRPPRLPRPRPRPWHRPRP")
-0.119
>>> reportedvalue("RRIRGRPPRLPRPRPRPMEEPRP")
0.48
>>> reportedvalue("RRIRNRPPRLPRPRPRPLTWPRP")
-0.182
>>> reportedvalue("RRIRYRPPRLPRPRPRPIDEPRP")
-0.438
>>> reportedvalue("RRIRSRPPRLPRPRPRPRRKPRP")
0.207
>>> reportedvalue("RRIRARPPRLPRPRPRPSVKPRP")
0.133
>>> reportedvalue("RRIRYRPPRLPRPRPRPAWNPRP")
-0.374
>>> reportedvalue("RRIRLRPPRLPRPRPRPGDKPRP")
0.00262
>>> reportedvalue("RRIRNRPPRLPRPRPRPDNPPRP")
-0.168
>>> reportedvalue("RRIRGRPPRLPRPRPRPRMPPRP")
0.605
>>> reportedvalue("RRIRRRPPRLPRPRPRPPEGPRP")
0.657
>>> reportedvalue("RRIRWRPPRLPRPRPRPDYKPRP")
-0.0643
>>> reportedvalue("RRIRTRPPRLPRPRPRPPLLPRP")
0.172
>>> reportedvalue("RRIRERPPRLPRPRPRPLRAPRP")
0.348
>>> reportedvalue("RRIRTRPPRLPRPRPRPQVRPRP")
0.0794
>>> reportedvalue("RRIRDRPPRLPRPRPRPSVRPRP")
0.0325
>>> reportedvalue("RRIRNRPPRLPRPRPRPKRSPRP")
0.115

---

# Test system: Escherichia coli TOP10;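 further: peptides expressed intracellularly from a pBAD plasmid library in pooled LB shake-flask culture, induced with 0.3% L-arabinose, DNA abundance read by NGS, three biological replicates, DESeq2 with apeglm shrinkage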
# testName: shrunken log2 fold change of peptide-encoding DNA abundance (4.5 h post-induction vs induction); higher = less antimicrobial activity (less host growth inhibition)
# experimentalSetup: time post-induction: 4.5 h; library: site-saturation at positions 5, 18, 19, 20
readoutName: shrunken log2 fold change

>>> reportedvalue("RRIRLRPPRLPRPRPRPGWIPRP")
0.0964
>>> reportedvalue("RRIRHRPPRLPRPRPRPVWIPRP")
-0.0159
>>> reportedvalue("RRIRQRPPRLPRPRPRPLYIPRP")
-0.659
>>> reportedvalue("RRIRTRPPRLPRPRPRPNGEPRP")
-0.12
>>> reportedvalue("RRIRHRPPRLPRPRPRPWRPPRP")
0.29
>>> reportedvalue("RRIRYRPPRLPRPRPRPPQKPRP")
-0.123
>>> reportedvalue("RRIRTRPPRLPRPRPRPRHMPRP")
-0.115
>>> reportedvalue("RRIRRRPPRLPRPRPRPNIRPRP")
-0.144
>>> reportedvalue("RRIRCRPPRLPRPRPRPWQCPRP")
-0.0231
>>> reportedvalue("RRIRNRPPRLPRPRPRPLYYPRP")
-0.0384
>>> reportedvalue("RRIRCRPPRLPRPRPRPWWGPRP")
0.0769
>>> reportedvalue("RRIRFRPPRLPRPRPRPVTIPRP")
-0.118
>>> reportedvalue("RRIRNRPPRLPRPRPRPILQPRP")
-0.387
>>> reportedvalue("RRIRYRPPRLPRPRPRPLQPPRP")
-0.499
>>> reportedvalue("RRIRLRPPRLPRPRPRPPPAPRP")
1.52
>>> reportedvalue("RRIRYRPPRLPRPRPRPGLIPRP")
-0.0546
>>> reportedvalue("RRIRARPPRLPRPRPRPMQPPRP")
0.369
>>> reportedvalue("RRIRFRPPRLPRPRPRPLLMPRP")
-0.564
>>> reportedvalue("RRIRRRPPRLPRPRPRPIGIPRP")
-0.088
>>> reportedvalue("RRIRKRPPRLPRPRPRPAFYPRP")
0.114
>>> reportedvalue("RRIRMRPPRLPRPRPRPYFEPRP")
-0.318
>>> reportedvalue("RRIRMRPPRLPRPRPRPHPDPRP")
-0.0902
>>> reportedvalue("RRIRSRPPRLPRPRPRPSHHPRP")
-0.515
>>> reportedvalue("RRIRLRPPRLPRPRPRPTFNPRP")
-0.289
>>> reportedvalue("RRIRMRPPRLPRPRPRPGSMPRP")
0.668
>>> reportedvalue("RRIRNRPPRLPRPRPRPHCVPRP")
0.0245
>>> reportedvalue("RRIRRRPPRLPRPRPRPMIFPRP")
-0.241
>>> reportedvalue("RRIRIRPPRLPRPRPRPNFYPRP")
-0.565
>>> reportedvalue("RRIRVRPPRLPRPRPRPNAFPRP")
-0.0289
>>> reportedvalue("RRIRYRPPRLPRPRPRPPESPRP")
0.0226
>>> reportedvalue("RRIRYRPPRLPRPRPRPMVKPRP")
-0.574
>>> reportedvalue("RRIRVRPPRLPRPRPRPEWLPRP")
0.0685
>>> reportedvalue("RRIRVRPPRLPRPRPRPPMMPRP")
-0.0474
>>> reportedvalue("RRIRMRPPRLPRPRPRPDLPPRP")
-0.0325
>>> reportedvalue("RRIRKRPPRLPRPRPRPEVEPRP")
2.8
>>> reportedvalue("RRIRPRPPRLPRPRPRPNQMPRP")
-0.129
>>> reportedvalue("RRIRNRPPRLPRPRPRPKYDPRP")
-0.624
>>> reportedvalue("RRIRMRPPRLPRPRPRPHQRPRP")
0.236
>>> reportedvalue("RRIRPRPPRLPRPRPRPQKTPRP")
-0.0227
>>> reportedvalue("RRIRHRPPRLPRPRPRPIFQPRP")
0.153
>>> reportedvalue("RRIRNRPPRLPRPRPRPRYDPRP")
-0.494
>>> reportedvalue("RRIRWRPPRLPRPRPRPHNRPRP")
-0.205
>>> reportedvalue("RRIRQRPPRLPRPRPRPVQVPRP")
-0.0564
>>> reportedvalue("RRIRSRPPRLPRPRPRPETRPRP")
0.192
>>> reportedvalue("RRIRRRPPRLPRPRPRPEDFPRP")
0.117
>>> reportedvalue("RRIRSRPPRLPRPRPRPYATPRP")
-0.192
>>> reportedvalue("RRIRIRPPRLPRPRPRPRCSPRP")
-0.137
>>> reportedvalue("RRIRTRPPRLPRPRPRPDFHPRP")
-0.336
>>> reportedvalue("RRIRQRPPRLPRPRPRPYRPPRP")
-0.103
>>> reportedvalue("RRIRNRPPRLPRPRPRPPPAPRP")
1.09
>>> reportedvalue("RRIRARPPRLPRPRPRPRIDPRP")
0.74
>>> reportedvalue("RRIRCRPPRLPRPRPRPWYSPRP")
-0.361
>>> reportedvalue("RRIRMRPPRLPRPRPRPFMSPRP")
0.0642
>>> reportedvalue("RRIRMRPPRLPRPRPRPPRMPRP")
0.893
>>> reportedvalue("RRIRWRPPRLPRPRPRPWLFPRP")
0.0264
>>> reportedvalue("RRIRGRPPRLPRPRPRPCITPRP")
0.158
>>> reportedvalue("RRIRVRPPRLPRPRPRPQHRPRP")
0.0105
>>> reportedvalue("RRIRDRPPRLPRPRPRPSMKPRP")
-0.198
>>> reportedvalue("RRIRHRPPRLPRPRPRPGPYPRP")
-0.226
>>> reportedvalue("RRIRYRPPRLPRPRPRPFVNPRP")
0.017
>>> reportedvalue("RRIRQRPPRLPRPRPRPSQIPRP")
-0.0855
>>> reportedvalue("RRIRPRPPRLPRPRPRPYCVPRP")
-0.479
>>> reportedvalue("RRIRNRPPRLPRPRPRPIPCPRP")
-0.0228
